Tested on: OVCAR3 cells
METHOD DESCRIPTION: MTT proliferation assay, OVCAR3;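 note: compound given as an 8- or 10-point series, one day after plating, with exposure covering roughly 3-4 cell doublings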
Format: cell-based
STUDY CONDITIONS: 5 days compound exposure, 1:3 serial dilution starting at 10 μM
*1 amine or outer side, *2 acyl side, *3 side chain or, on linkers, in order; H or OH if unused. Where a SMILES comes first, the peptide text is derived from it. Bridges are numbered along the chain shown (N, C = ends). [ ]: non-standard residue; d: D form. The star is where a group is joined. X47 = C[C@@H]1CN(c2ccc(-c3ccc(Cl)cc3C[C@@H](C(=O)[*:2])N(C)[*:1])cc2)C[C@H](C)N1C; X106 = CN([C@@H](Cc1cc(Cl)ccc1-c1ccc(N2CCN(Cc3ccccn3)CC2)cc1)C(=O)[*:2])[*:1]; X95 = CN1CCCC[C@H]1c1ccc(-c2ccc(Cl)cc2C[C@@H](C(=O)[*:2])N(C)[*:1])cc1; X119 = CC(=O)N1C2C=C(c3ccc(F)cc3C[C@@H](C(=O)[*:2])N(C)[*:1])CC1COC2; NMehhhLys(Me) = CN([C@@H](CCCCCCCN(C)[*:3])C(=O)[*:2])[*:1]; NMe3Pal(2-OcPr,5-F) = CN[C@@H](Cc1cc(F)cnc1OC1CC1)C(=O)O; cBuCO(3,3-F2-1-CF3) = O=C(C1(C(F)(F)F)CC(F)(F)C1)*; Pro(trans-4-F) = O=C(O)[C@@H]1C[C@@H](F)CN1; Gly(cPr) = N[C@H](C(=O)O)C1CC1
MEASURED ATTRIBUTE: GI50 (nM)
Numbers only, in nM.

Previously resolved entries follow.
{"columns": ["COMPOUND", "MEASURED ATTRIBUTE", "UOM", "ENDPOINT VALUE"],
 "data": [
  ["CC(=O)N1C2C=C(c3ccc(F)cc3C[C@H]3C(=O)N(C)CCCCCCC[C@H](N(C)C(=O)[C@@H](NC(=O)[C@@H]4C[C@@H](F)CN4C(=O)C4(C(F)(F)F)CC(F)(F)C4)C4CC4)C(=O)N[C@@H](CC(C)C)C(=O)N3C)CC1COC2 (stereo partly drawn) [Example 124] ({cBuCO(3,3-F2-1-CF3)}-[Pro(trans-4-F)][Gly(cPr)][NMehhhLys(Me)]L[X119]; lactam 3-C)", "GI50", "nM", 20],
  ["CC(C)C[C@@H]1NC(=O)[C@@H](N(C)C(=O)[C@@H](NC(=O)[C@@H]2C[C@@H](F)CN2C(=O)C2(C(F)(F)F)CC(F)(F)C2)C2CC2)CCCCCCCN(C)C(=O)[C@H](Cc2cc(Cl)ccc2-c2ccc(N3C[C@@H](C)N(C)[C@@H](C)C3)cc2)N(C)C1=O [Example 384] ({cBuCO(3,3-F2-1-CF3)}-[Pro(trans-4-F)][Gly(cPr)][NMehhhLys(Me)]L[X47]; lactam 3-C)", "GI50", "nM", 10],
  ["CC(C)C[C@@H]1NC(=O)[C@@H](N(C)C(=O)[C@@H](NC(=O)[C@@H]2C[C@@H](F)CN2C(=O)C2(C(F)(F)F)CC(F)(F)C2)C2CC2)CCCCCCCN(C)C(=O)[C@H](Cc2cc(Cl)ccc2-c2ccc([C@@H]3CCCCN3C)cc2)N(C)C1=O [Example 417] ({cBuCO(3,3-F2-1-CF3)}-[Pro(trans-4-F)][Gly(cPr)][NMehhhLys(Me)]L[X95]; lactam 3-C)", "GI50", "nM", 10],
  ["CC(C)C[C@@H]1NC(=O)[C@@H](N(C)C(=O)[C@@H](NC(=O)[C@@H]2C[C@@H](F)CN2C(=O)C2(C(F)(F)F)CC(F)(F)C2)C2CC2)CCCCCCCN(C)C(=O)[C@H](Cc2cc(F)cnc2OC2CC2)N(C)C1=O [Example 128] ({cBuCO(3,3-F2-1-CF3)}-[Pro(trans-4-F)][Gly(cPr)][NMehhhLys(Me)]L[NMe3Pal(2-OcPr,5-F)]; lactam 3-C)", "GI50", "nM", 30],
  ["CC(C)C[C@@H]1NC(=O)[C@@H](N(C)C(=O)[C@@H](NC(=O)[C@@H]2C[C@@H](F)CN2C(=O)C2(C(F)(F)F)CC(F)(F)C2)C2CC2)CCCCCCCN(C)C(=O)[C@H](Cc2cc(Cl)ccc2-c2ccc(N3CCN(Cc4ccccn4)CC3)cc2)N(C)C1=O [Example 368] ({cBuCO(3,3-F2-1-CF3)}-[Pro(trans-4-F)][Gly(cPr)][NMehhhLys(Me)]L[X106]; lactam 3-C)", "GI50", "nM", 10]
]}

Next up:
# GI50 lookup, item CC(C)C[C@@H]1NC(=O)[C@@H](N(C)C(=O)[C@@H](NC(=O)[C@@H]2C[C@@H](F)CN2C(=O)C2(C(F)(F)F)CC(F)(F)C2)C2CC2)CC=CCCCCN(C)C(=O)[C@H](Cc2cc(F)ccc2-c2cnn(C3CCC3)c2)N(C)C1=O
30
